B1: ADD1 (parent)
chain: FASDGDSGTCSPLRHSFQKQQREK

- Variants of: B1
- PROTOCOL_DETAILS: protein stability index of a GFP-peptide fusion (GPS, HEK-293T) (PSI 1-6); higher = more stable;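 also: lentivirally expressed fusions sorted by FACS into six bins by GFP to DsRed ratio, PSI derived from sequencing read proportions per bin multiplied by bin number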
- ASSAY_SETUP: c terminus: a fixed tail appended
EXPERIMENTAL_READOUT: protein stability index

RESIDUE_SEQUENCE	EXPERIMENTAL_READOUT	MEASUREMENT
FASDGDSGTCYPLRHSFQKQQREK	protein stability index	3.92
FASDGDSGTCSPPRHSFQKQQREK	protein stability index	4.1
FASDGESGTCSPLRHSFQKQQREK	protein stability index	3.98
FASDGDSGTCSVLRHSFQKQQREK	protein stability index	3.89
